B1: library; numbered along this chain (parent)
chain: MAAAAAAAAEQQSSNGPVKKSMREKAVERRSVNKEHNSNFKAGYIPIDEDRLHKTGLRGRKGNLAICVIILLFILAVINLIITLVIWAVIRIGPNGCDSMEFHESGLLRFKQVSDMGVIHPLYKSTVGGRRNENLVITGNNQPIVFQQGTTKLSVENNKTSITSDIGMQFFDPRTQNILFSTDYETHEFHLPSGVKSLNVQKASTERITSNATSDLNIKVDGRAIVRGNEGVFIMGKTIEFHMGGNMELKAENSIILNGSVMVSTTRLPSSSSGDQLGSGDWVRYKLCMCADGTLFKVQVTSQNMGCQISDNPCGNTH

Variants of: B1
Assay: SGCB cell-surface expression functional score (HA stain, bin4 vs bin1, normalised to synonymous) (log10 ratio); higher = more cell-surface SGCB (functional)
# thresholds on SGCB cell-surface expression functional score (log10) define classes: bucket A (below -0.2), bucket B (-0.2 to below 0.1), bucket C (0.1 or more)

Would you please look over these solved cases?
Variant notation: I309C
Class assignment: bucket A
//
Variant notation: S105P
Class assignment: bucket A
//
Variant notation: V298A
Class assignment: bucket A
//
Variant notation: N15H
Class assignment: bucket B
//
Variant notation: T186L
Class assignment: bucket B

Now for another entry.
Which bin should I file R207P under?
bucket A
